# target_or_test_system: T1, human PD-1 extracellular domain fused with mouse Fc (PD-1-mFc) (human, UniProt Q15116 25-170)
# T1 construct: extracellular domain; not used because of the label; also called hPD-1-mFc; human PD-1-mouse Fc fusion protein
# T1 sequence (Q15116 25-170): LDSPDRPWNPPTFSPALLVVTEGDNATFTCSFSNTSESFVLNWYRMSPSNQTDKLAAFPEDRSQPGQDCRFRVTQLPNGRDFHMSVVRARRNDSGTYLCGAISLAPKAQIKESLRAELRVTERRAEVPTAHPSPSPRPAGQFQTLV
# experiment_summary: blockage ELISA, coated PD-1-mFc, competitor PDL-1-mFc-biotin
reported_property: IC50 (µg/mL)
Report the value in µg/mL with no unit label.

binder	reported_property	data_value
chimeric 22A5-hIgG4 (antibody, V domains shown, Mouse variable regions with human IgG4 constant region) VH: EVKLVESGGGLVKPGGSLKLSCSASGFSFSYYDMSWVRQTPEKGLEWVATISGGGRNTYFIDSVKGRFTISRDNVKNNLYLLMSSLRSEDTALYYCASPYEGAVDFWGQGTSVTVSS VL: DIVMTQSHKVMSTSVGDRVSITCKASQDVDNAVAWYQQNPGQSPKLLIKWASTRHHGVPDRFTGSGSGTDFTLTISTVQSEDLADFFCQQYSTFPYTFGGGTKLEIKR	IC50	1.01
chimeric 15H5-hIgG4 (antibody, V domains shown, Mouse variable regions with human IgG4 constant region) VH: EVKLVESGGGLVKPGGSLKLSCAASGFAFRSYDMSWVRQTPEKILEWVATISGGGSYTYYQDSVKGRFTISRDNARNTLYLQMSSLRSEDTALYYCASPYGPYFDYWGQGTTLTVSS VL: DIQMNQSPSSLSASLGDTITITCHASQSINVWLSWYQQKPGNIPKLLIYRASNLHTGVPSRFSGSGSGTGFTLTISSLQPDDIATYYCQQGQSYPWTFGGGTKLEIKR	IC50	1.37

Now consider the entry below.
Entry under review: chimeric 14A6-hIgG4 (antibody, V domains shown, Mouse variable regions with human IgG4 constant region) VH: DVQLQESGPGLVKPSQSLSLTCTVTGYSITSDYAWNWIRQFPGNQLEWMAYISYSGYTSYNPSLKSRISITRDTSRNQFFLQLNSVTTEDTATYYCARSLDYDYGTMDYWGQGTSVTVSS VL: QIVLSQSPAILSASPGEKVTMTCRANSSVSSMHWYQQKPGSSPEPWIYAISNLAFGVPARFSGSGSGTSYSLTISRVEAEDAATYFCQQWNSRPPTFGGGTKLEIKR . Reported IC50?
0.823

Just for reference, patent US20170267762A1 is where these values come from.
